- assay-system: HLA-A*02:06
- experiment-notes: IEDB peptide-MHC binding, purified MHC/competitive/fluorescence; filed as Kd, often an IC50 or EC50 that approximates it; bounds were set here for any values at or beyond the usual limits of such assays
- cond: source organism: Vibrio vulnificus YJ016
# Kd per entry

sequence-content | lt-gt-eq | Kd (nM)
WHQARFEEL | ≥ | 20000
GWPDNYCEW | = | 2170

---

- assay-system: HLA-B*27:05
- experiment-notes: IEDB peptide-MHC binding, purified MHC/direct/fluorescence; filed as Kd, often an IC50 or EC50 that approximates it; bounds were set here for any values at or beyond the usual limits of such assays
- cond: source organism: Influenza A virus (A/chicken/Hunan/fg/2004(H5N1))
pKd: −log10 of the molar value.
measured-metric: pKd

sequence-content | obs-value
DTVNRTHQY | ≤ 4.70

This collection of values is drawn from the Immune Epitope Database (IEDB).
